Taken from patent US20170362324A1.

- target: T1, human soluble αvβ5 protein (extracellular domains of human αv and β5 integrin subunits) (human, UniProt P06756 31-992; P18084 24-719)
- T1 construct: also called biotin-αvβ5; hsαvβ5
- T1 sequence (P06756 31-992 limits assumed, chain 1 of 2): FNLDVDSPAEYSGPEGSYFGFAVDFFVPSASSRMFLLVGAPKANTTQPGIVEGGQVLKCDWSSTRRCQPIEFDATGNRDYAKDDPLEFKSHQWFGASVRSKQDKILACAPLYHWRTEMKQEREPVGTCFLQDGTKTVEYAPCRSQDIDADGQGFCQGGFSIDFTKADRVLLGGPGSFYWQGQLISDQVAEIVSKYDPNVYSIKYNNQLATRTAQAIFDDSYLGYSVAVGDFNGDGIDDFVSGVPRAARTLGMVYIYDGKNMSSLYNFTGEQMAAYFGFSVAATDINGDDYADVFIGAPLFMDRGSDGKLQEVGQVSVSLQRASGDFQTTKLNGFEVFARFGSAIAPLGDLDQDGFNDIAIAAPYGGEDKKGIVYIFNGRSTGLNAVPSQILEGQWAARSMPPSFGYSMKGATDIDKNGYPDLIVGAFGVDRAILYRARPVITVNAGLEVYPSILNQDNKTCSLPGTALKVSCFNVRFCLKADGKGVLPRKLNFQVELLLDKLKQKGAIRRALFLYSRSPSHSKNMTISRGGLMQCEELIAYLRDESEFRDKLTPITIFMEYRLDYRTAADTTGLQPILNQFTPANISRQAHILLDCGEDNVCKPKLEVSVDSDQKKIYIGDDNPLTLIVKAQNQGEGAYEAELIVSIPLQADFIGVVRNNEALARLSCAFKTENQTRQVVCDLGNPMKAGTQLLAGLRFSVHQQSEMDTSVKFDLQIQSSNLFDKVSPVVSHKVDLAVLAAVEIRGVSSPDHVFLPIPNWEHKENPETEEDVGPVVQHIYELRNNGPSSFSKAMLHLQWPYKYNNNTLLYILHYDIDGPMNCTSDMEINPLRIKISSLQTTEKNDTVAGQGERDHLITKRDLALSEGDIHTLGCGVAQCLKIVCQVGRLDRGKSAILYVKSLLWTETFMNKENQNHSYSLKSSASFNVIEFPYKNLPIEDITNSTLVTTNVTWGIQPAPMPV
- T1 sequence (P18084 24-719 limits assumed, chain 2 of 2): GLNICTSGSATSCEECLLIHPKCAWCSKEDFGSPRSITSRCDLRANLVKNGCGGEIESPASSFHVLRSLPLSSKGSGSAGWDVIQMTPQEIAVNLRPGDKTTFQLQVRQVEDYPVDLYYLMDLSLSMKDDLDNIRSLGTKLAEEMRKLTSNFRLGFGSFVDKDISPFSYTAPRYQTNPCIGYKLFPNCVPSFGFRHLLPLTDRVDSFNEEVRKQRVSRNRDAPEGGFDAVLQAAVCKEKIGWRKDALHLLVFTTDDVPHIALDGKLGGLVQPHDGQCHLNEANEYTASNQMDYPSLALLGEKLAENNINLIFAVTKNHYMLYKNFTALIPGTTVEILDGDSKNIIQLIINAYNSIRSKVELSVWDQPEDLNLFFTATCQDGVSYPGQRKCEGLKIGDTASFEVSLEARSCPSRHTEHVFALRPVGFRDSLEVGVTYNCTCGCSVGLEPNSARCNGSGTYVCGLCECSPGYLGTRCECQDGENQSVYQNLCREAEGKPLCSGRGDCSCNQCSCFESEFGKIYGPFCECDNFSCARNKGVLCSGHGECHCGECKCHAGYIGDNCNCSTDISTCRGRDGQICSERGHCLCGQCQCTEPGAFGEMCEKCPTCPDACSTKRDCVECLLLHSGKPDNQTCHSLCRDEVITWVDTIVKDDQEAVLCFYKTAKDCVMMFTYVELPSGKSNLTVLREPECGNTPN
- protocol_description: ELISA, biotin-αvβ5 on streptavidin plate, unpurified antibody
observation_type: EC50 (nM)
Your answer is read as nM, so omit the unit and give the number.

Study these solved cases before continuing.
binder	unit_spec	recorded_number
VH0/VL1 Agly-hIgG1(T299A) (antibody, V domains shown, also called H0/L1) VH: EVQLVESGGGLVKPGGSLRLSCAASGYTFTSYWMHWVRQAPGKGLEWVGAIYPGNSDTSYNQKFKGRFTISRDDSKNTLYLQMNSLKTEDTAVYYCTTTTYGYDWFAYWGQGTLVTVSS VL: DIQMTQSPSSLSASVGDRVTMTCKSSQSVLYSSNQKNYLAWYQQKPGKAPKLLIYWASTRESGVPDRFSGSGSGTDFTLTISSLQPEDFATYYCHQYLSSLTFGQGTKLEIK	nM	1.3
VH2/VL2 Agly-hIgG1(T299A) (antibody, V domains shown, also called H2/L2 (Agly-IgG1)) VH: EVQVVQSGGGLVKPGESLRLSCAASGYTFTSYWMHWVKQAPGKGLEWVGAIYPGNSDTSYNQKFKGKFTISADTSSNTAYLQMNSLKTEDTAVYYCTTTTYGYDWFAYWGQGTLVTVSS VL: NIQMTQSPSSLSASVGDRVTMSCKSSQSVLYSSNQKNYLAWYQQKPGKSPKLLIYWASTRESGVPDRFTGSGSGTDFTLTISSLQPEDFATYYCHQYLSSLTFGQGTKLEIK	nM	0.7

Next binder, please.
Please look up its EC50: VH0/VL3 Agly-hIgG1(T299A) (antibody, V domains shown, also called H0/L3) VH: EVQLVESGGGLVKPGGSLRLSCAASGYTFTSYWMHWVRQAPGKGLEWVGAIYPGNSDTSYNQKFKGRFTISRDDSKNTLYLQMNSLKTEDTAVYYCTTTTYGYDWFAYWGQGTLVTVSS VL: DIQMTQSPSSLTVSVGDRVTMSCKSSQSVLYSSNQKNYLAWYQQKPGKSPKLLIYWASTRESGVPDRFTGSGSGTDFTLTISSVQPEDFATYYCHQYLSSLTFGAGTKLEIK
0.9
